molecular target: T1, ANTIBODY EXPRESSION CONTROL; assay: SPR Biacore, expression control
T1 construct: also called mouse anti-canine antibody (capture reagent of the expression control ELISA)
Below: a set of entries, each annotated with reported koff.
The figure you give is taken to be in s⁻¹; do not add the unit.

Mu_09E09_VH (SEQ ID NO: 35)_D99A (antibody, V domains shown) VH: DVKLVESGEGLVKPGGSLKLSCAASGFTFSSYAMSWVRQTPEKRLEWVAYISSGGDYIYYADTVKGRFTISRDNARNTLYLQMSSLKSEDTAMYYCTRAPITGTFAYWGQGTLVTVSA VL: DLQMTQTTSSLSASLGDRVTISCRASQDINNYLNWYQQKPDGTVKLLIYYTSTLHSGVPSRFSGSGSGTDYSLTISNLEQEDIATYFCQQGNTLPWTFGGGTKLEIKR: 6.88e-05

Consider the binder Mu_10F07_VL (SEQ ID NO: 41)_Y50A (antibody, V domains shown) VH: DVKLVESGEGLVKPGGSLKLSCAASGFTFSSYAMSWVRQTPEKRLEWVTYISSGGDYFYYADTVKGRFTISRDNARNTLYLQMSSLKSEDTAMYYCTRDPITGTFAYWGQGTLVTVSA VL: DIQMTQTTSSLSASLGDRVTISCRASQDITNYLNWYQQKPDGTVKLLIYATSTLHSGVPSRFSGSGSGTDFSLTISNLEQEDIATYFCQQGHMLPWTFGGGTKLEIKR and give its recorded koff. 0.000105
